Target: CRF1 receptors (Rattus norvegicus)
Sequence (P35353 24-415): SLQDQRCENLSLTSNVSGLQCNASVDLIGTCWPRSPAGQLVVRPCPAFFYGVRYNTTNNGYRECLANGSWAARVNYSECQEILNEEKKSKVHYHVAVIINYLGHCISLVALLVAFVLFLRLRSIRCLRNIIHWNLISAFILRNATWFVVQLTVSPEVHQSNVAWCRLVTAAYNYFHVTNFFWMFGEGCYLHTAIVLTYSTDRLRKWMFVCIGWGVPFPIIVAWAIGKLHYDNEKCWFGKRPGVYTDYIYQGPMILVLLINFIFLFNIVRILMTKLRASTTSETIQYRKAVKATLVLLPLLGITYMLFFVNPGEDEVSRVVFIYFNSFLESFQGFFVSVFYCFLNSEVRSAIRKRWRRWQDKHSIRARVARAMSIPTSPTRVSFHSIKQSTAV
Assay: [125I]-Tyr0-sauvagine competition binding, rat cerebellar membrane homogenates
Parameters: from tissue; host or cells: rat cerebellum, membrane homogenate
Conditions: read-out: IC50, displacement of specific [125I]-Tyr0-sauvagine binding
Protocol: Binding activity of MPZP was determined in a competition assay using […] (2200 Ci/mmol; Perkin Elmer, Waltham, Mass.) as the radioligand. […] Total binding was determined using assay buffer in lieu of a CRF1 antagonist, and nonspecific binding was determined in the presence of 1 μM unlabeled sauvagine. […] The pellet-containing tip was cut off and counted in an automated 10-detector gamma counter (MicroMedic Apex, ICN Biomedical, Costa Mesa, Calif.) at 80% efficiency. […]
Parameter Measured: IC50 (nM)
Could you give me the number in nM? Just the number is fine.

[ask] Give me measured IC50, please, for this compound: COCCN(CCOC)c1cc(C)nc2c(-c3ccc(OC)cc3C)c(C)nn12
[reply] 6.1
